# Tested On: Human Leukocyte Elastase (HLE) (Homo sapiens, UniProt P08246)
# Construct: purchased Athens Research and Technology 16-15-051200
# Sequence (P08246 30-247 limits assumed): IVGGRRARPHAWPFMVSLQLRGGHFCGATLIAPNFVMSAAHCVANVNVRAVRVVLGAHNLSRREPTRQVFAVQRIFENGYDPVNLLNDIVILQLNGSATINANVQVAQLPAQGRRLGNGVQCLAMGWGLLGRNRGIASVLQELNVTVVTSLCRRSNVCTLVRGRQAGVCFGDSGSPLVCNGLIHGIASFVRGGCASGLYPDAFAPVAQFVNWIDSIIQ
# Test Method Notes: HLE protease inhibition assay
# Assay type: biochemical
# Experimental Parameters: Table S1; variable slope four parameter fit; read-out: IC50 against HLE
# Method: Elastase was purchased from Athens Research and Technology (Cat No. 16-15-051200). […] N-Suc-AAA-pNA (Sigma Aldrich, Bayswater, Australia, S4760, 100 µL, 1 mg/mL, […]) was added to each well, and the absorbance was monitored every six minutes at 405 nm. The rate of change of absorbance was used as a comparison to controls to determine the % inhibition of protein in Microsoft Excel^TM (v2402), and these values were exported to GraphPad Prism (v8.0.1) for IC50 calculation.
Readout Kind: IC50 (µM)
Report the value in µM with no unit label.

Give its IC50 value. Item: "CC(C)COc1oc(=O)c2ccccc2c1Cl"
2.22

Param item: "CCCCOc1oc(=O)c2ccccc2c1Cl"
2.64

Item: CCC(C)Oc1oc(=O)c2ccccc2c1Cl (racemic) [Compound 2g, (±)-3-sec-Butoxy-4-chloroisocoumarin]
1.81

And "CC(C)Oc1oc(=O)c2ccccc2c1Cl" ?
1.95

Entry to check: "CCOc1oc(=O)c2ccccc2c1Cl"
12.3

"CCCOc1oc(=O)c2ccccc2c1Cl" , same question.
2.53

Also "COc1oc(=O)c2ccccc2c1Cl" , if possible.
39.5
